# method_description: Pharmacokinetics in opioid-dependent patients, Phase IB study, single dose
# run_parameters: human, serum, 60 mg, Half-life, mean ± SD, opioid-dependent patients; Cohort 1 (60 mg)
measured_endpoint: half-life (min)

| compound | measured_endpoint | recorded_number |
| --- | --- | --- |
| CC[C@H]1CC2C[C@H]3c4[nH]c5ccc(O)cc5c4CCN(C2)C13 [noribogaine] | half-life | 1760 |

* * *

# method_description: Pharmacokinetics in opioid-dependent patients, Phase IB study, single dose
# run_parameters: human, serum, 120 mg, Half-life, range, opioid-dependent patients; Cohort 2 (120 mg)

| mol_smiles | half-life |
| --- | --- |
| CC[C@H]1CC2C[C@H]3c4[nH]c5ccc(O)cc5c4CCN(C2)C13 | 21.9 to 48.3 h |

* * *

# method_description: Pharmacokinetics in opioid-dependent patients, Phase IB study, single dose
# run_parameters: human, serum, 120 mg

| mol_smiles | Tmax |
| --- | --- |
| CC[C@H]1CC2C[C@H]3c4[nH]c5ccc(O)cc5c4CCN(C2)C13 | 0.98 to 4.02 h |

* * *

# method_description: Pharmacokinetics in opioid-dependent patients, Phase IB study, single dose
# run_parameters: human, serum, 180 mg
measured_endpoint: Cmax

| compound | result |
| --- | --- |
| CC[C@H]1CC2C[C@H]3c4[nH]c5ccc(O)cc5c4CCN(C2)C13 [noribogaine] | 205 to 338 ng/mL |

* * *

# method_description: Pharmacokinetics in opioid-dependent patients, Phase IB study, single dose
# run_parameters: human, serum, 120 mg

| molecule | Cmax |
| --- | --- |
| CC[C@H]1CC2C[C@H]3c4[nH]c5ccc(O)cc5c4CCN(C2)C13 [noribogaine] | 0.139 to 0.23 µg/mL |
